- Run Conditions: in isopropanol, 288.15 K
Reported Endpoint: solubility (mole fraction)

INSERT INTO assay_data (molecule, measured) VALUES
  ('COC(=O)C1=C(C)NC(C)=C(C(=O)OCC(C)C)C1c1ccccc1[N+](=O)[O-] (stereo unspecified)', 0.00688);

* * *

- Run Conditions: in isopropanol, 308.15 K
Reported Endpoint: solubility (mole fraction)

INSERT INTO results (compound, reported_endpoint, measured) VALUES
  ('COC(=O)C1=C(C)NC(C)=C(C(=O)OCC(C)C)C1c1ccccc1[N+](=O)[O-] (stereo unspecified)', 'solubility (mole fraction)', 0.0129);

* * *

- Run Conditions: in ethyl acetate, 298.15 K
Reported Endpoint: solubility (mole fraction)

INSERT INTO results (compound, measured) VALUES
  ('COC(=O)C1=C(C)NC(C)=C(C(=O)OCC(C)C)C1c1ccccc1[N+](=O)[O-] (stereo unspecified)', 0.0286);

* * *

- Run Conditions: in water, 298.15 K
Reported Endpoint: solubility (mole fraction)

INSERT INTO measurements (compound, measured) VALUES
  ('COC(=O)C1=C(C)NC(C)=C(C(=O)OCC(C)C)C1c1ccccc1[N+](=O)[O-] (stereo unspecified)', '1.17e-05');

* * *

- Run Conditions: in water, 308.15 K
Reported Endpoint: solubility (mole fraction)

INSERT INTO assay_data (molecule, reported_endpoint, measured) VALUES
  ('COC(=O)C1=C(C)NC(C)=C(C(=O)OCC(C)C)C1c1ccccc1[N+](=O)[O-] (stereo unspecified)', 'solubility (mole fraction)', '1.94e-05');

* * *

- Run Conditions: in water, 318.15 K
Reported Endpoint: solubility (mole fraction)

INSERT INTO measurements (compound, measured) VALUES
  ('COC(=O)C1=C(C)NC(C)=C(C(=O)OCC(C)C)C1c1ccccc1[N+](=O)[O-] (stereo unspecified)', '3.09e-05');

* * *

- Run Conditions: in ethyl acetate, 278.15 K
Reported Endpoint: solubility (mole fraction)

INSERT INTO results (compound, reported_endpoint, measured) VALUES
  ('COC(=O)C1=C(C)NC(C)=C(C(=O)OCC(C)C)C1c1ccccc1[N+](=O)[O-] (stereo unspecified)', 'solubility (mole fraction)', 0.016);

* * *

- Run Conditions: in isopropanol, 283.15 K
Reported Endpoint: solubility (mole fraction)

INSERT INTO assay_data (compound, measured) VALUES
  ('COC(=O)C1=C(C)NC(C)=C(C(=O)OCC(C)C)C1c1ccccc1[N+](=O)[O-] (stereo unspecified)', 0.00578);

* * *

- Run Conditions: in ethyl acetate, 303.15 K
Reported Endpoint: solubility (mole fraction)

INSERT INTO results (molecule, reported_endpoint, measured) VALUES
  ('COC(=O)C1=C(C)NC(C)=C(C(=O)OCC(C)C)C1c1ccccc1[N+](=O)[O-] (stereo unspecified)', 'solubility (mole fraction)', 0.0324);

* * *

- Run Conditions: in ethyl acetate, 313.15 K
Reported Endpoint: solubility (mole fraction)

INSERT INTO results (molecule, measured) VALUES
  ('COC(=O)C1=C(C)NC(C)=C(C(=O)OCC(C)C)C1c1ccccc1[N+](=O)[O-] (stereo unspecified)', 0.0419);

* * *

- Run Conditions: in n-propanol, 313.15 K
Reported Endpoint: solubility (mole fraction)

INSERT INTO assay_data (compound, measured) VALUES
  ('COC(=O)C1=C(C)NC(C)=C(C(=O)OCC(C)C)C1c1ccccc1[N+](=O)[O-] (stereo unspecified)', 0.0136);

* * *

- Run Conditions: in ethyl acetate, 318.15 K
Reported Endpoint: solubility (mole fraction)

INSERT INTO results (compound, reported_endpoint, measured) VALUES
  ('COC(=O)C1=C(C)NC(C)=C(C(=O)OCC(C)C)C1c1ccccc1[N+](=O)[O-] (stereo unspecified)', 'solubility (mole fraction)', 0.0477);
